Reference source: ChEMBL document CHEMBL3994623

Test system: Staphylococcus aureus
Test: Antistaphylococcal activity against linezolid-resistant Staphylococcus aureus NRS-271 containing phage type E-MRSA after 18 hrs by two fold serial dilution method
Assay type: functional
Conditions: NRS-271, 18 h
Readout Type: MIC (µg/mL)
Express the result in µg/mL but write the number alone.

Guide cases for MIC, answers given:
CCCCNc1c(OC)ccc2c(Cc3ccc(F)cc3)c3[n+](cc12)CCc1cc2c(cc1-3)OCO2.[Br-] ... 3.13
CCCCCNc1c(OC)ccc2c(Cc3ccccc3C)c3[n+](cc12)CCc1cc2c(cc1-3)OCO2.[Br-] ... 3.13

Shifting focus to the molecule that follows.
Data request: What value of measured MIC is listed for CCCCCNc1c(OC)ccc2c(Cc3cccc(C)c3)c3[n+](cc12)CCc1cc2c(cc1-3)OCO2.[Br-] ?
Data returned: 1.56
